src = patent US12173018B2

Biological target: E. coli PBP3 (Escherichia coli (strain K12))
Sequence (P0AD68 whole entry): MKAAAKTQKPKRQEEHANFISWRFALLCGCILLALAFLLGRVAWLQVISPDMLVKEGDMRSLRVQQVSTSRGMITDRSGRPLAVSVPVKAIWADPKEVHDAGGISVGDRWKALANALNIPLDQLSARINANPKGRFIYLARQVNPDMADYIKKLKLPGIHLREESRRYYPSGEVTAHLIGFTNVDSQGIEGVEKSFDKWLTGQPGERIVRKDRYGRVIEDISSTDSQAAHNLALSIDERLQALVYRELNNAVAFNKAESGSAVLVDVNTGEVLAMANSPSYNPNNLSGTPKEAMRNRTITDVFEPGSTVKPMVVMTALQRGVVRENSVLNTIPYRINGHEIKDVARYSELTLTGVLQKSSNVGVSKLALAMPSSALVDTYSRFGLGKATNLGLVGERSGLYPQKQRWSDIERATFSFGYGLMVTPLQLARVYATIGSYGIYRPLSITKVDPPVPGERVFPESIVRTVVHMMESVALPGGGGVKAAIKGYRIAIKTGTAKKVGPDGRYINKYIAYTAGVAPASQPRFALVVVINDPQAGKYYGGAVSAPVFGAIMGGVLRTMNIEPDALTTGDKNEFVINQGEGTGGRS
Test: E. coli PBP3 Bocillin-FL fluorescence polarization competition binding assay
pEC50: −log10 of the molar value.
# pEC50 per record follows

>>> obsvalue("O=C(O)c1c(F)ccc2c1OB(O)[C@@H](NC(=O)C(NC(=O)N1CCN(CCF)C(=O)C1=O)c1ccc(O)c(O)c1Cl)C2 (stereo partly shown) [Example 131]")
"3.30 to 4.52"

Recorded pEC50 for CCN1CCN(C(=O)NC(C(=O)N[C@H]2Cc3cccc(C(=O)O)c3OB2O)c2ccc(OCCF)cc2)C(=O)C1=O (stereo partly shown) [Example 76] , please?
3.30 to 4.52

Recorded pEC50 for CCN1CCN(C(=O)NC(C(=O)N[C@H]2Cc3cc(F)cc(C(=O)O)c3OB2O)c2csc(N)n2)C(=O)C1=O (stereo partly shown) [Example 16] , please?
3.30 to 4.52

Recorded pEC50 for CCN1CCN(C(=O)NC(C(=O)N[C@H]2Cc3cccc(C(=O)O)c3OB2O)c2ncccc2F)C(=O)C1=O (stereo partly shown) [Example 162] , please?
3.30 to 4.52

* * *

System: P. aeruginosa (ΔmexAB-oprM)
Assay: microbe, parasite or virus in culture
Assay type: cell-based
Conditions: Pseudomonas aeruginosa, read-out: MIC P. aeruginosa ΔmexAB-OprM
measuredQuantity: MIC

Worked cases, answers included:
>>> obsvalue("CCN1CCN(C(=O)NC(C(=O)N[C@H]2Cc3ccc(F)c(C(=O)O)c3OB2O)c2ccc(O)c(O)c2F)C(=O)C1=O (stereo partly drawn)")
"< 0.25 µg/mL"
>>> obsvalue("CCN1CCN(C(=O)NC(C(=O)N[C@H]2Cc3ccc(F)c(C(=O)O)c3OB2O)c2ccc(O)cn2)C(=O)C1=O (stereo partly drawn)")
"8 to 16 µg/mL"

Now take the following compound into account.
Recorded MIC for `CCN1CCN(C(=O)N[C@@H](C(=O)N[C@H]2Cc3ccc(F)c(C(=O)O)c3OB2O)c2ccc(O)c(F)c2)C(=O)C1=O` , please?
8 to 16 µg/mL

* * *

Test system: E. coli AG100A
Assay: microbe, parasite or virus in culture
Type: cell-based
Settings: Escherichia coli, read-out: MIC E. coli AG100A
measuredQuantity: MIC

Worked cases, answers included:
>>> obsvalue("NCCN1CCN(C(=O)N[C@@H](C(=O)N[C@H]2Cc3ccc(F)c(C(=O)O)c3OB2O)c2ncc(O)cc2F)C(=O)C1=O")
"2 to 4 µg/mL"
>>> obsvalue("CCN1CCN(C(=O)NC(C(=O)N[C@H]2Cc3ccc(F)c(C(=O)O)c3OB2O)c2ncc(O)cc2Cl)C(=O)C1=O (stereo partly shown)")
"8 to 16 µg/mL"
>>> obsvalue("CCN1CCN(C(=O)NC(C(=O)N[C@H]2Cc3cccc(C(=O)O)c3OB2O)c2ccc(B(O)O)cc2)C(=O)C1=O (stereo partly shown)")
"2 to 4 µg/mL"
>>> obsvalue("CCN1C[C@H](C)N(C(=O)NC(C(=O)N[C@H]2Cc3ccc(F)c(C(=O)O)c3OB2O)c2ncc(O)cc2F)C(=O)C1=O (stereo partly shown)")
"2 to 4 µg/mL"
>>> obsvalue("CCN1CCN(C(=O)NC(C(=O)N[C@H]2Cc3cccc(C(=O)O)c3OB2O)c2nc(N)sc2F)C(=O)C1=O (stereo partly shown)")
"0.5 to 1 µg/mL"

Item: CCN1CCN(C(=O)NC(C(=O)N[C@H]2Cc3cccc(C(=O)O)c3OB2O)c2ncccc2F)C(=O)C1=O (stereo partly shown) Test system: E. coli AG100A Read-out: MIC Value: ?
2 to 4 µg/mL

Item: CCN1CCN(C(=O)NC(C(=O)N[C@H]2Cc3cccc(C(=O)O)c3OB2O)c2cnc(O)cn2)C(=O)C1=O (stereo partly shown) Test system: E. coli AG100A Read-out: MIC Value: ?
2 to 4 µg/mL

* * *

Test system: E. coli AG100A
Assay: microbe, parasite or virus in culture
Assay type: cell-based
Details: Escherichia coli, read-out: MIC E. coli AG100A
measuredQuantity: MIC

Worked cases, answers included:
>>> obsvalue("CCN1CCN(C(=O)N[C@@H](C(=O)N[C@H]2Cc3cccc(C(=O)O)c3OB2O)c2ccc(O)c(O)c2Cl)C(=O)C1=O [Example 190]")
"< 0.25 µg/mL"
>>> obsvalue("CCN1CCN(C(=O)NC(C(=O)N[C@H]2Cc3cccc(C(=O)O)c3OB2O)c2cc(O)c(O)cc2F)C(=O)C1=O (stereo partly drawn) [Example 90]")
"2 to 4 µg/mL"

Now take the following compound into account.
Recorded MIC for NS(=O)(=O)c1ccc(C(NC(=O)N2CCN(CCF)C(=O)C2=O)C(=O)N[C@H]2Cc3ccc(F)c(C(=O)O)c3OB2O)cc1 (stereo partly drawn) [Example 182] , please?
32 to 64 µg/mL

* * *

Molecular target: E. coli PBP1b (Escherichia coli (strain K12), UniProt P02919)
Sequence (P02919 whole entry): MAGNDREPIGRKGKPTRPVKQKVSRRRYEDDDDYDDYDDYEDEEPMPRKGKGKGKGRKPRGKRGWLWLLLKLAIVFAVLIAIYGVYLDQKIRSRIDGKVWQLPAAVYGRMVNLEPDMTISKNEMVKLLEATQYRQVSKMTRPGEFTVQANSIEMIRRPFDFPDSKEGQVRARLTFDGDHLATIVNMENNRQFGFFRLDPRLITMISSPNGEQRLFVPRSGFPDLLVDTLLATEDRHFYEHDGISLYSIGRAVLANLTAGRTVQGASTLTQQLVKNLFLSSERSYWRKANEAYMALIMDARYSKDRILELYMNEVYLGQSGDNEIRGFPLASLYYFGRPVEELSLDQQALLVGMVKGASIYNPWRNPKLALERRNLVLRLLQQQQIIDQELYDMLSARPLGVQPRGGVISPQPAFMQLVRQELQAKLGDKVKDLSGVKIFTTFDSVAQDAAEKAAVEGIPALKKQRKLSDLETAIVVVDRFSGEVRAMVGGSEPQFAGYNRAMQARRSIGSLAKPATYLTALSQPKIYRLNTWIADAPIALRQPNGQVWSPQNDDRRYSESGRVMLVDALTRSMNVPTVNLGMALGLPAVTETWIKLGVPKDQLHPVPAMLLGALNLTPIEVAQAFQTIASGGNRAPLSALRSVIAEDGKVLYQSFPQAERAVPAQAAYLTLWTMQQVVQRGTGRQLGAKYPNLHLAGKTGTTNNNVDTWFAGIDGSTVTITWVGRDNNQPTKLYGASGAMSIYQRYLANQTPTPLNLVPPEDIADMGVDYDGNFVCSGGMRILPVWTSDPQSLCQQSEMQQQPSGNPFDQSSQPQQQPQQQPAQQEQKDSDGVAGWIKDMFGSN
Assay: Radioligand competition binding assay with 14C-labeled boronic acid probe, PBP1b
Details: assay validation; Compound A 20 μM, PBP1a/PBP1b 0.1 μM; read-out: EC50 (inhibition of binding of Compound A) PBP1b
Procedure: To determine the ability of boronic acid-based test PBP inhibitors to bind Penicillin Binding Proteins (PBPs), a radio-labelled boronic acid PBP inhibitor [drawing 751] was used in competition binding assays to determine boronic acid PBP inhibitor binding to PBP1a or PBP1b from Escherichia coli. […] The flow through was recovered and 100 μl mixed with 5 ml of UltimaGold liquid scintillation cocktail and the radioactivity counted. […]
measuredQuantity: EC50

Recorded EC50 for CC1(C)S[C@@H]2[C@H](NC(=O)[C@H](N)c3ccccc3)C(=O)N2[C@H]1C(=O)O [ampicillin, reference compound] , please?
< 0.5 µM

* * *

# MIC per record follows
Test system: K. pneumoniae 848844
Assay: microbe, parasite or virus in culture
Type: cell-based, Klebsiella pneumoniae
Settings: Klebsiella pneumoniae; K. pneumoniae 848844 producing SHV-11 and KPC-2; read-out: MIC K. pneumoniae 848844

>>> obsvalue("CCN1CCN(C(=O)N[C@H](C(=O)N[C@H]2Cc3cccc(C(=O)O)c3OB2O)c2ccc(S(N)(=O)=O)c(OC)c2)C(=O)C1=O [Example 168]")
"> 128 µg/mL"
>>> obsvalue("NS(=O)(=O)c1ccc(C(NC(=O)N2CCN(CCF)C(=O)C2=O)C(=O)N[C@H]2Cc3ccc(F)c(C(=O)O)c3OB2O)cc1 (stereo partly shown) [Example 182]")
"> 128 µg/mL"
>>> obsvalue("CCN1CCN(C(=O)N[C@@H](C(=O)N[C@H]2Cc3cccc(C(=O)O)c3OB2O)c2ncc(O)cc2F)C(=O)C1=O [Example 177]")
"32 to 64 µg/mL"
>>> obsvalue("CCN1CCN(C(=O)NC(C(=O)N[C@H]2Cc3cccc(C(=O)O)c3OB2O)c2ccc(S(N)(=O)=O)c(F)c2)C(=O)C1=O (stereo partly shown) [Example 210]")
"> 128 µg/mL"
>>> obsvalue("O=C(O)c1cccc2c1OB(O)[C@@H](NC(=O)C(NC(=O)c1c[nH]ccc1=O)c1ncc(O)cc1F)C2 (stereo partly shown) [Example 219]")
"> 128 µg/mL"

Recorded MIC for O=C(O)c1cccc2c1OB(O)[C@@H](NC(=O)C(NC(=O)N1C[C@H]3CCCN3C(=O)C1=O)c1ccc(O)c(O)c1Cl)C2 (stereo partly shown) [Example 232] , please?
8 to 16 µg/mL

Recorded MIC for NCCN1CCN(C(=O)N[C@@H](C(=O)N[C@H]2Cc3cccc(C(=O)O)c3OB2O)c2ncc(O)cc2F)C(=O)C1=O [Example 225] , please?
32 to 64 µg/mL

Recorded MIC for C[C@H]1CN(CCN)C(=O)C(=O)N1C(=O)N[C@@H](C(=O)N[C@H]1Cc2ccc(F)c(C(=O)O)c2OB1O)c1ccc(O)c(O)c1Cl [Example 250] , please?
0.5 to 1 µg/mL

Recorded MIC for CCN1CCN(C(=O)NC(C(=O)N[C@H]2Cc3cccc(C(=O)O)c3OB2O)c2cnc(O)cn2)C(=O)C1=O (stereo partly shown) [Example 121] , please?
> 128 µg/mL

Recorded MIC for CCN1CCN(C(=O)NC(C(=O)N[C@H]2Cc3ccc(F)c(C(=O)O)c3OB2O)c2cc(O)c(O)cc2F)C(=O)C1=O (stereo partly shown) [Example 136] , please?
32 to 64 µg/mL

Recorded MIC for O=C(O)c1cccc2c1OB(O)[C@@H](NC(=O)C(NC(=O)N1CCN(CCF)C(=O)C1=O)c1ccc(B(O)O)cc1)C2 (stereo partly shown) [Example 113] , please?
> 128 µg/mL

Recorded MIC for O=C(O)c1c(F)ccc2c1OB(O)[C@@H](NC(=O)C(NC(=O)N1CCN(CCF)C(=O)C1=O)c1ccc(O)c(O)c1Cl)C2 (stereo partly shown) [Example 131] , please?
32 to 64 µg/mL

Recorded MIC for CCN1CCN(C(=O)NC(C(=O)N[C@H]2Cc3ccc(F)c(C(=O)O)c3OB2O)c2ccc(O)c(O)c2Cl)C(O)C1=O (stereo partly shown) [Example 194] , please?
8 to 16 µg/mL
